# ASSAY PROCEDURE: soluble on expression in E. coli; label from the status in PepcDB or PDB records
MEASURED PARAMETER: soluble on expression in E. coli

MCMDSNVSWMIREKIERTIKNLEKNNIEAYNVKNSKQLIELIDKLIPEGETVAVGGSMTLFETGIIDHIRSKNYNFLDRYKEGLSKEDIKDVFRKSFFADSYIVSTNALTENGELYNVDGNGNRVAAMLFGPDKVIVIAGINKIVKDVDEAIKRNKFVSAPINAKRLNKATPTKVGYCMDCKSQDRICNEYTLIKRQGVKGRIKVIIVEEELGYLEHHHHHH; soluble
LSECKTGNGKNYRGTMSKTKNGITCQKWSSTSPHRPRFSPATHPSEGLEENYCRNPDNDPQGPWCYTTDPEKRYDYCDILECEEECMH; soluble
MSLKTMSDTSEIIFSNYGIYDLGDNLELLLPNTLIKFQRISDNAFSYFRENSEGQIIEKIIPVKSNDIKIELAPIRPLNHPAKRTNYVFLKLDKEIHLGENSAASIFVHCPIEIGIFLIYGDNHEPLDWITCNPLNSRFSLYGSPDTGTLCKYAEVSLATDYNDSVSYVNGVMHIVIENTLSFAQTISKVIFPITDNNLYYKDSKSIVDGIKIIMKKRAAVNIAEIKPTLVDTEWTQAPAWDNSIDSVHHMEMTLEEGHHHHHH; soluble

---

# ASSAY PROCEDURE: soluble on expression in E. coli; label from the status in PepcDB or PDB records
MEASURED PARAMETER: soluble on expression in E. coli

MGSDKIHHHHHHMLQTLQKDAIELLKTLIKTESFSKEEHNTAEILNTFLVERGVETIREKNNVWAFNKHFDKNKPTILLNSHHDTVKPNPGYTNDPFEPIVKDGKLFGLGSNDAGGCLVSLIATFLHFYNETNLKYNFCIAATAEEEISGFDGLELVYPKLGPIDFAIVGEPTLMDIAVAEKGLMVVDCVAIGKAGHAAREEGENAIYIALKDIEWIRNYKFERVSPHLGPMKMSVTIINAGYQHNVVPEKCHFTIDVRITEEYKNEEVLKIIDDNIQSEVNPRSVRLRPSFIDPNHELVHAAIKHGAKTYGSPTTSDQALIPVPSVKMGPGNSARSHTANEFIWLIEIEEGIEKYIKVLSEIVLA; not soluble
MTRAKQIILWASLSAMPLIAQASERSDDEIKALVYQAILERPEIILQAVEQLQQAEEAAQAASAHAALTENRDSLFNDPNAPVLGNPEGDVTVVEFFDYNCPYCRRAMAEVQGLVDADPNVRLVYREWPILGEGSDFAARAALAARQQGKYEAFHWALMGMSGKANETGVLRIAREVGLDTEQLQRDMEAPEVTAHIAQSMALAQKLGFNGTPSFVVEDALVPGFVEQSQLQDAVDRARKAAAK; not soluble
SAYIHIPFCEHICHYCDFNKYFIQSQPVDEYLNALEQEMINTIAKTGQPDLKTIFIGGGTPTSLSEEQLKKLMDMINRVLKPSSDLSEFAVDANPDDLSAEKLKILKEAGVNRLSFGVQTFEDDLLEKIGRVHKQKDVFTSFERAREIGFENISLDLMFGLPGQTLKHLEHSINTALSLDAEHYSVYSLIVEPKTVFYNLMQKGRLHLPPQEQEAEMYEIVMSKMEAHGIHQYEISNFAKAGMESKHNLTYWSNEQYFGFGAGAHGYIGGTRTVNVGPVKHYIDLIAEKGFPYRDTHEVTTEEQIEEEMFLGLRKTAGVSKKRFAEKYGRSLDGLFPSVLKDLAEKGLIHNSES; not soluble
